assay: qHTS assay to identify small molecule antagonists of the estrogen related receptor signaling pathway with the pleiotropic PPARgamma coactivator (PGC) from Tox21 10K library - cell viability counter screen (AID 1224840); settings: PGC/ERR reporter cells viability, CellTiter-Fluor, 17.5 h; series mostly up to 92.4 µM; also: nearly all actives have a fitted effect of over 40% in size
Inconclusive results are not listed. The source made the active and inactive calls. Calls follow the shape of the dose curve; as a rule, active = well fitted cell-killing curve with a large enough effect in the repeat runs (not every such curve was filed as active); inconclusive = weak or mixed curves, or effect the other way; inactive = no such curve, though single readings can be large or run the other way.
parameter: outcome

Previously resolved entries follow.
compound | parameter | result
CCCCC(CC)CO (stereo not drawn) | outcome | inactive
CN(C)CCOCCN(C)C | outcome | inactive
CCCCC(CC)COC(=O)C(C#N)=C(c1ccccc1)c1ccccc1 (stereo not drawn) | outcome | inactive
O=c1[nH]nnc2ccccc12 | outcome | inactive
CSCCC=O | outcome | inactive

// query Give the measured outcome of `CCOC(=O)NNc1nncc2ccccc12` .
// result inactive

// query Give the measured outcome of CN(C)CCC(c1ccc(Cl)cc1)c1ccccn1 (stereo not drawn) .
// result inactive

// query Give the measured outcome of `CCCCOC(=O)COc1ccc(Cl)cc1Cl` .
// result inactive

// query Give the measured outcome of O=C(CC(C(=O)OC1CCCCC1)S(=O)(=O)O)OC1CCCCC1 (stereo not drawn) .
// result inactive

// query Give the measured outcome of `C=CCOC(=O)c1ccccc1C(=O)OCC=C` .
// result inactive

// query Give the measured outcome of `Cc1cc(C)c(C)cc1C` .
// result inactive

// query Give the measured outcome of `CCCCCCOCCO` .
// result inactive

// query Give the measured outcome of `C#CCN(C)Cc1ccccc1` .
// result inactive

// query Give the measured outcome of CC1CCC2CC1C2(C)C (stereo not drawn) .
// result inactive

// query Give the measured outcome of `CCCCN(CCCC)CCCC` .
// result inactive

// query Give the measured outcome of `O=S1(=O)CC=CC1` .
// result inactive

// query Give the measured outcome of `OCc1cccnc1` .
// result inactive

FYI, the data here is from PubChem BioAssay (Tox21).
